Attribute: residual activity
system-name: CDK2 CCNA2 (human) (UniProt P24941+P20248)
Sequence (P20248 whole entry, looked up, other chains not shown): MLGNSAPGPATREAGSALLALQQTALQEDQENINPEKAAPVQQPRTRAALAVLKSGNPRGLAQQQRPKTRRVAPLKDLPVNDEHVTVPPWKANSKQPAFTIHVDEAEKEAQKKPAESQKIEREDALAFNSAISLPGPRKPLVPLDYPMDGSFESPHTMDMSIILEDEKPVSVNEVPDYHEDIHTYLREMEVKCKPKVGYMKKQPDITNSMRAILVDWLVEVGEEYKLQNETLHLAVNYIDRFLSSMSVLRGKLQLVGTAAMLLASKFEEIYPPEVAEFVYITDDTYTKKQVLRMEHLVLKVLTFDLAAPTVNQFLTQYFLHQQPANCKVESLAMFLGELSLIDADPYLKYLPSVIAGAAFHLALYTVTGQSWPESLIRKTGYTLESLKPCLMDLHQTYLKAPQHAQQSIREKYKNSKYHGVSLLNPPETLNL
method-summary: radiometric filter-binding kinase assay, Kinase HotSpot
protocol-conditions: compound 0.5 µM; ATP 10 µM
Please respond with the number in % and leave the unit unwritten.

Recorded residual activity, per entry:
smiles: FC(F)(F)c1ccc(/C=C/c2nc(COc3ccc(CCCCn4ccnn4)cc3)co2)cc1
unit-tag: %
residual activity: 87.9
--
smiles: COc1cc2ncnc(Nc3ccc(O)c(Br)c3)c2cc1OC
unit-tag: %
residual activity: 88.7
--
smiles: CCOc1cc2ncnc(Nc3cccc(Br)c3)c2cc1OCC
unit-tag: %
residual activity: 91.9
--
smiles: COc1cc2c(cc1OC)-c1[nH]nc(Nc3cccc(F)c3)c1C2
unit-tag: %
residual activity: 87.5

As a next step, examine the compound that follows.
Query: For `O=c1c(-c2ccc(F)cc2)c(-c2ccncc2)[nH]n1-c1ccc(Cl)cc1` , what is its reported residual activity?
Reply: 89.9

----------
Attribute: residual activity
system-name: PAK3 (human) (UniProt O75914)
Sequence (O75914 whole entry, looked up): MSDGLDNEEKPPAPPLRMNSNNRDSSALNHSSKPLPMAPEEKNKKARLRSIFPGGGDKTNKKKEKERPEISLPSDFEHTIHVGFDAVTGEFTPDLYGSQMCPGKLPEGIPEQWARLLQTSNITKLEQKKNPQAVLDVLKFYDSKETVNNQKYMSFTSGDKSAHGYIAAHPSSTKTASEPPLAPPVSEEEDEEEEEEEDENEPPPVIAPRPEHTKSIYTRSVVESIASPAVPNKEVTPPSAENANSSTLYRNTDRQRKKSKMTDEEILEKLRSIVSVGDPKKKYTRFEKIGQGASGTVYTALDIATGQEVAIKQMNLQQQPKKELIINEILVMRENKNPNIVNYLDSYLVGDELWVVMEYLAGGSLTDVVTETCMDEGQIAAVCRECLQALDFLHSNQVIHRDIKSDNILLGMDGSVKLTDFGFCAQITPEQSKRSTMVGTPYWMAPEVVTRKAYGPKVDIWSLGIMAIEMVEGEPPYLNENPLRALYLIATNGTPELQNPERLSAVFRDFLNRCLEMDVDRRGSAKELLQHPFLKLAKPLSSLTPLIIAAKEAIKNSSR
method-summary: radiometric filter-binding kinase assay, Kinase HotSpot
protocol-conditions: compound 0.5 µM; ATP 10 µM
Please respond with the number in % and leave the unit unwritten.

Recorded residual activity, per entry:
smiles: N/C(=N\N=C/c1ccc(-c2cccc([N+](=O)[O-])c2)o1)N[N+](=O)[O-]
unit-tag: %
residual activity: 95.1

smiles: O=C(c1ccccc1)c1ccc(N2CCOCC2)cc1O
unit-tag: %
residual activity: 99.4

Query: Write down the reported residual activity of `O=C1NC(=O)c2c1c1c3ccccc3[nH]c1c1[nH]c3cc(Br)ccc3c21` , test system: PAK3 (human) (UniProt O75914).
Reply: 97.7

Query: Write down the reported residual activity of `O=c1c2ccccc2[nH]c(=S)n1CCN1CCC(=C(c2ccc(F)cc2)c2ccc(F)cc2)CC1` , test system: PAK3 (human) (UniProt O75914).
Reply: 94.6

----------
system-name: INSR (human) (UniProt P06213)
Sequence (P06213 whole entry, looked up): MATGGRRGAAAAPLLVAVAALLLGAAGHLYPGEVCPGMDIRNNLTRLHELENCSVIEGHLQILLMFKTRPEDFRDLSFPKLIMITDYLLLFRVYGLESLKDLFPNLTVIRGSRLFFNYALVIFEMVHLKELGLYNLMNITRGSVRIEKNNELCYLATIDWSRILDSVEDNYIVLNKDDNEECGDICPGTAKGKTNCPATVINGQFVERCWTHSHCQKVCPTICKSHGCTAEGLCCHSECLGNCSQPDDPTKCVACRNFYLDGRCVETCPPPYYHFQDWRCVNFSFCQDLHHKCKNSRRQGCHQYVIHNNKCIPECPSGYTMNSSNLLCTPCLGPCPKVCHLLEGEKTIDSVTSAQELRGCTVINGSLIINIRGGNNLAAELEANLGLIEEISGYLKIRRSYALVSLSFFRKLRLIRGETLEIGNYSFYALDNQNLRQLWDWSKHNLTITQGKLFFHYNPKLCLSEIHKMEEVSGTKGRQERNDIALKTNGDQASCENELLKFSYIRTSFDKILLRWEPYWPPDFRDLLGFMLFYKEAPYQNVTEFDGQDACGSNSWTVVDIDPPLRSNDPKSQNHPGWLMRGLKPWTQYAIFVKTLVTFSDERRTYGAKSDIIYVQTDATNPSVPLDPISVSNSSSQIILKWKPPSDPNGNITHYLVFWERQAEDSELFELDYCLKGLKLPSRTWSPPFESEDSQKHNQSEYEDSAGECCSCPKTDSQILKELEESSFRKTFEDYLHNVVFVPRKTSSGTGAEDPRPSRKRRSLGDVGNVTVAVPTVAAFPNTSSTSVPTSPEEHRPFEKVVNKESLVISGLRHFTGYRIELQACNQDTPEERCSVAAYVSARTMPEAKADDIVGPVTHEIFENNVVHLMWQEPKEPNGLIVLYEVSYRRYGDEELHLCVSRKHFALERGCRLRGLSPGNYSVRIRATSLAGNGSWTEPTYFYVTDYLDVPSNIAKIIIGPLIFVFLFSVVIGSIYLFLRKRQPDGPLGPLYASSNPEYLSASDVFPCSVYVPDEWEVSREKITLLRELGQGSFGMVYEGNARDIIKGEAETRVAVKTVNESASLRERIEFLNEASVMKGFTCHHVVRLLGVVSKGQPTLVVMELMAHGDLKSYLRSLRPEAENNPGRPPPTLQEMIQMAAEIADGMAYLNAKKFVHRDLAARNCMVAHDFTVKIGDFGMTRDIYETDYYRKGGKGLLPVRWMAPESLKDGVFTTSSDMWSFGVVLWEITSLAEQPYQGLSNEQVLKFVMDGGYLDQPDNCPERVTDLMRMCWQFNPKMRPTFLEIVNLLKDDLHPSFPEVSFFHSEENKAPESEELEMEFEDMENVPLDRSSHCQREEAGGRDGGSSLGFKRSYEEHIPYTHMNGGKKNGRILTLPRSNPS
method-summary: radiometric filter-binding kinase assay, Kinase HotSpot
protocol-conditions: compound 0.5 µM; ATP 10 µM
Define the label as Met when residual activity is strictly less than 90% and as Not met in all remaining cases.

smiles: CCOc1cc2ncnc(Nc3cccc(Br)c3)c2cc1OCC
qualitative-label: Not met
--
smiles: CN[C@@H]1C[C@H]2O[C@@](C)([C@@H]1OC)n1c3ccccc3c3c4c(c5c6ccccc6n2c5c31)C(=O)NC4
qualitative-label: Met
--
smiles: O=c1[nH]c2ccccc2n1C1CCN(Cc2ccc(-c3nc4cc5[nH]cnc5cc4nc3-c3ccccc3)cc2)CC1
qualitative-label: Not met
--
smiles: O=c1c(-c2ccc(F)cc2)c(-c2ccncc2)[nH]n1-c1ccc(Cl)cc1
qualitative-label: Not met
--
smiles: O=c1cc(N2CCOCC2)oc2c(-c3ccccc3)cccc12
qualitative-label: Not met

Query: Lab log: compare recorded residual activity with 90%; is it strictly lower for `N#Cc1c(NC(=O)c2cccc3ccccc23)sc2c1CCCC2` ?
Reply: Not met

Query: Lab log: compare recorded residual activity with 90%; is it strictly lower for `N#C/C(=C1/Nc2ccccc2S1)c1ccnc(NCCc2cccnc2)n1` ?
Reply: Not met

Query: Lab log: compare recorded residual activity with 90%; is it strictly lower for `N#CCCc1ccc2c(c1)-c1[nH]c3ccc([N+](=O)[O-])cc3c1CC(=O)N2` ?
Reply: Not met
